Reference for the values: patent US8618289B2

# Measured On: RAF kinases (Homo sapiens, UniProt P15056)
# Sequence (P15056 whole entry): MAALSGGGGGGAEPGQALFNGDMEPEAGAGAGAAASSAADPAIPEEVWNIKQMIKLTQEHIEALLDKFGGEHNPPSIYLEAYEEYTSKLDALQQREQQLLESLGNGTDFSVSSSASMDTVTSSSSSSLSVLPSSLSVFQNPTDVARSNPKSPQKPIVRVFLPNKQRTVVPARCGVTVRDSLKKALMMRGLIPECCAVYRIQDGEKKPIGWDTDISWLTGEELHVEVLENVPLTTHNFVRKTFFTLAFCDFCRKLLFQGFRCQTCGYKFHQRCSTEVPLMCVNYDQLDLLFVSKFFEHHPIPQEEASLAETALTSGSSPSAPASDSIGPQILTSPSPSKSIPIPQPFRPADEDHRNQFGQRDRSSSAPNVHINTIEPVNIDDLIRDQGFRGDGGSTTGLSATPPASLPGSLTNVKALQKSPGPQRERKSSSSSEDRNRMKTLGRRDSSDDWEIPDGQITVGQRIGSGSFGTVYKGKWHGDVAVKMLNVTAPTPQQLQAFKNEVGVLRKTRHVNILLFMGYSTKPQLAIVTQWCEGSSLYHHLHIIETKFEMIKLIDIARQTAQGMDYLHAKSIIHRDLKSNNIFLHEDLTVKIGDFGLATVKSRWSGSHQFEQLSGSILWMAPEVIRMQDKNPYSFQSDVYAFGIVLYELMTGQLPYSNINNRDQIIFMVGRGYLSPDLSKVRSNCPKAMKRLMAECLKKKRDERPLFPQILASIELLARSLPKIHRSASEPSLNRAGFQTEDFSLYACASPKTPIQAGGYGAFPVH
# Condition Notes: read-out: BRAF WT Kd; BRAF WT
Overview of recorded Kd for various compounds

Worked cases, Kd given:
Given the entry COc1cc2ncnc(Sc3cccc(NC(=O)Nc4cc(C(C)(C)C)nn4Cc4ccccc4)c3)c2cc1OC [Ex 358] , report its measured Kd.
> 1 µM

Form field: reported Kd of COc1cc2ncnc(Oc3cccc(NC(=O)Nc4cc(C(F)(F)C(F)(F)F)nn4-c4ccccc4)c3)c2cc1OC [Ex 304]
> 1 µM

I'd like to know its Kd. The compound in question is COCCOc1cc2ncnc(Oc3cccc(NC(=O)Nc4ccc(C(F)(F)F)c(OC)c4)c3)c2cc1OC [Ex 223]
> 1 µM

New cases:
Which Kd is reported for this compound? COc1cc2ncnc(Oc3cccc(NC(=O)Nc4cc(C(C)(C)C)nn4-c4ccccc4C(F)(F)F)c3)c2cc1OC [Ex 376]
> 1 µM

What Kd value was documented for this compound, COc1cc2ncnc(Oc3cccc(NC(=O)Nc4cc(C(C)(C)C)nn4-c4cccc(C)c4)c3)c2cc1OC [Ex 285] ?
> 1 µM

Could you share which Kd value was measured for COc1cc2ncnc(Sc3cccc(NC(=O)Nc4cc(C(C)(C)F)no4)c3)c2cc1OCCCN1CCS(=O)(=O)CC1 [Ex 245] ?
< 0.25 µM

Query (compound): COc1cc2ncnc(Oc3cc(NC(=O)Nc4cc(C(C)(C)F)no4)ccc3F)c2cc1OC [Ex293] ; field requested: Kd
< 0.25 µM

Consider the compound shown here: COc1cc2ncnc(Oc3cccc(NC(=O)Nc4cc(C(C)(C)C)on4)c3C)c2cc1OC [Ex290] What is its recorded Kd?
< 0.25 µM

Item COc1cc2ncnc(Sc3cccc(NC(=O)Nc4cc(C(C)(C)C)nn4-c4ccc(C)cc4C)c3)c2cc1OC [Ex 284] has what recorded Kd?
> 1 µM

Given COc1cc2ncnc(Oc3cccc(NC(=O)Nc4cc(C(C)(C)C)nn4-c4ccc(C)cc4)c3)c2cc1OC [Ex 274] , state its recorded Kd.
> 1 µM

====

# Measured On: RAF kinases (Homo sapiens)
# Assay Notes: biochemical
pKd: −log10 of the molar value.
The entries below come with measured pKd values attached.

Item under review: COCCOc1cc2ncnc(Sc3cccc(NC(=O)Nc4cc(C(F)(F)F)nn4-c4ccc(F)cc4)c3)c2cc1OC [Ex 242] . Reported pKd?
< 6.00

Field request: pKd | item: COCCOc1cc2ncnc(Oc3cccc(NC(=O)Nc4cc(C(C)(C)C)no4)c3)c2cc1OC [Ex 202]
6.30 to 6.60

For COCCOc1ccc2ncnc(Sc3cccc(NC(=O)Nc4cc(C(C)(C)C)on4)c3)c2c1 [Ex 87] , what is its reported pKd?
6.00 to 6.30

pKd lookup needed for COc1cc2ncnc(Oc3cccc(NC(=O)Nc4cc(C5CCCC5)no4)c3)c2cc1OC [Ex 163] , thanks.
6.00 to 6.30

I have this molecule here, COc1cc2ncnc(Oc3cccc(NC(=O)Nc4cc(C5CCC5)nn4-c4ccccc4)c3)c2cc1OC [Ex 355] , and I need its recorded pKd.
6.00 to 6.30

---
Param item = COc1ccc2ncnc(Sc3cccc(NC(=O)Nc4cc(C(C)(C)C)on4)c3)c2c1 [Ex 49] ; retrieve measured pKd.
6.00 to 6.30

I am curious: what pKd value has been reported for COCCOc1cc2ncnc(Oc3cccc(NC(=O)Nc4cc(C(F)(F)F)nn4-c4ccccc4)c3)c2cc1OC [Ex 221] ?
< 6.00

Which pKd is listed for COCCOc1cc2ncnc(Oc3cccc(NC(=O)Nc4cc(C(C)C)no4)c3)c2cc1OC [Ex 215] ?
6.30 to 6.60

Please report the recorded pKd for COc1cccc(NC(=O)Nc2cccc(Oc3ncnc4cc(OC)c(OC)cc34)c2)c1 [Ex 178] .
6.30 to 6.60

Look up pKd: COc1cc2ncnc(Sc3cccc(NC(=O)Nc4cc(C(C)(C)C)nn4-c4ccncc4)c3)c2cc1OC [Ex 337]
6.00 to 6.30

# lookup: pKd of COCCOc1cc2ncnc(Oc3cccc(NC(=O)Nc4cc(C(C)(F)F)no4)c3)c2cc1OC [Ex 211]
6.30 to 6.60

What value of pKd has been reported for the following molecule? COCCOc1cc2ncnc(Oc3cccc(NC(=O)Nc4cc(C(C)(C)C)nn4-c4ccccc4)c3)c2cc1OC [Ex 210]
< 6.00
